# study.system: γ-secretase (Homo sapiens)
# Construct: Human SH-SY5Y neuroblastoma cells overexpressing the direct β-secretase substrate SPA4CT; endogenous in cells
# procedure.text: Cell-Based γ-Secretase Assay (inhibition of Aβ(1-42) production, Meso Scale detection)
# run.conditions: Human SH-SY5Y neuroblastoma cells overexpressing SPA4CT; overnight incubation; Aβ(42) in media
pIC50: −log10 of the molar value.
readout.kind: pIC50

                                   compound  measured_result
0  CCOc1cc(C)c(Nc2nc(N3CCC(Cc4ccncc4)CC3)ncc2Cl)cc1C(C)C [Example 11]     5.82 to 6.30
1  COc1cnc(N2CCC(Cc3ccncc3)CC2)nc1Nc1cc(N(C)C)ccc1C [Example 6]     5.52 to 5.82
2  COC(=O)c1cc(Nc2cc(C(C)(C)C)ccc2C)nc(N2CCC(Cc3ccncc3)CC2)n1 [Example 18]     5.82 to 6.30
3  Cc1cc(C)c(N(C)C)cc1Nc1ccnc(N2CCC(Cc3ccncc3)CC2)n1 [Example 10]     5.52 to 5.82
4  Cc1ccc(C(C)(C)C)cc1Nc1ccnc(N2CCC(Cc3ccncc3)CC2)n1 [Example 4]     5.82 to 6.30
5  Cc1ccc(C(C)(C)C)cc1Nc1nc(N2CCC(Cc3ccncc3)CC2)ncc1F [Example 22]     5.52 to 5.82
6  Cc1ccc(OC(C)C)cc1Nc1ccnc(N2CCC(Cc3ccncc3)CC2)n1 [Example 12]     5.82 to 6.30
